The compounds listed here are annotated with their pIC50.
system.tested: MAO-A (Rattus norvegicus)
Sequence (P21396 1-526): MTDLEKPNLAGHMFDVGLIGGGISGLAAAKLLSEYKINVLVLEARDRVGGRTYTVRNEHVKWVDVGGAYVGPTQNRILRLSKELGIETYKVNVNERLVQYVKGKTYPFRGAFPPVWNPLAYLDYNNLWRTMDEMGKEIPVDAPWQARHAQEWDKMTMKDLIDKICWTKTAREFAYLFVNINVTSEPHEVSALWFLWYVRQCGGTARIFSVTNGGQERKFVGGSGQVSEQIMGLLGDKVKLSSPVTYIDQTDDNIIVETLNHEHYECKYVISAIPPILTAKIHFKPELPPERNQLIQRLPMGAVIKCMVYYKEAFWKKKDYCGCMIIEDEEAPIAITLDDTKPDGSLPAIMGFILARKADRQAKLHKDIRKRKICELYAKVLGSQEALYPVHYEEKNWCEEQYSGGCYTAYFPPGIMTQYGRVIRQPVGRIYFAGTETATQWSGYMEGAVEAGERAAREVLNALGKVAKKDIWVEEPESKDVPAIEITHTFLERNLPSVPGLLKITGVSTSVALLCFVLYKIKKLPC
pIC50: −log10 of the molar value.
value.type: pIC50

1) C[C@H](NCc1ccc(OCc2ccccc2F)cc1)C(N)=O = 3.64
2) C[C@H](NCc1ccc(OCC2CCCCC2)cc1)C(N)=O = 3.52
3) C[C@@H](C(N)=O)N(C)Cc1ccc(OCc2cccc(Cl)c2)cc1 = 4.09
4) CN(CC(N)=O)Cc1ccc(OCc2cccc(Cl)c2)cc1 = 4.30
5) C[C@H](NCc1ccc(OCc2cccc(F)c2)cc1)C(N)=O [Safinamide] = 3.23
